Entry source: ChEMBL document CHEMBL2424594

- targetDesc: Cannabinoid receptor 2 (Homo sapiens)
- Sequence (P34972 whole entry): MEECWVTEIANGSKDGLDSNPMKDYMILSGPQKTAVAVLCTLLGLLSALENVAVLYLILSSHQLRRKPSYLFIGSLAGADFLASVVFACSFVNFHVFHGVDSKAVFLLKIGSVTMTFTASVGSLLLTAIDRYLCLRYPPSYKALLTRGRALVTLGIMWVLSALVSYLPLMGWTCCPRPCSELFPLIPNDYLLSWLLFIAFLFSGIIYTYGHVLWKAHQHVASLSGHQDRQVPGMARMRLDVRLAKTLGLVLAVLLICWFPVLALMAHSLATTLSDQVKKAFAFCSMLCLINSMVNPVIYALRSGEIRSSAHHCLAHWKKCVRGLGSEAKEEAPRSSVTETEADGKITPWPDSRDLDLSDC
measuredMetric: Ki (nM)
Give bare numbers, in nM.

Provide value of Ki for this record tested with Cannabinoid receptor 2 (Homo sapiens): CN1CCCCC1Cn1cc(C(=O)c2cc([N+](=O)[O-])ccc2I)c2ccccc21 (racemic)
3.4
